Each entry below carries its reported inhibition.
TEST SYSTEM: Casein kinase I isoform gamma-3 (Homo sapiens);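 also: reported value is the mean percent inhibition of the kinase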
EXPERIMENTAL CONDITIONS: at 0.1 µM
Your answer should be a plain number; it is taken to be in %.

Sample answers from the record:
The measured inhibition associated with "O=C(O[C@H]1CN[C@H](C#Cc2cc3ncnc(Nc4ccc5c(cnn5Cc5ccccc5)c4)c3s2)C1)N1CCOCC1" reads -1.09

The measured inhibition associated with "CS(=O)(=O)Nc1ccc(-c2cc(-c3ccccc3)cc(C(N)=O)c2N)cc1" reads 2.42

The measured inhibition associated with "Cc1cc(O)cc(C)c1/C=C/c1cncc(C(=O)OC(C)(C)C)c1" reads 2.26

The measured inhibition associated with "COc1cc(Nc2ncc(-c3ccccc3)o2)cc(OC)c1" reads 5.09

Let's switch to this compound now.
The measured inhibition associated with "N#Cc1ccc2c(-c3ccnc(NC4CC4)n3)c(-c3ccc(F)cc3)nn2c1" reads 2.06

* * *

Each entry below carries its reported inhibition.
TEST SYSTEM: Cyclin-dependent kinase 2 (Homo sapiens);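 also: mean inhibition of CDK2 in complex with cyclin E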
EXPERIMENTAL CONDITIONS: at 0.1 µM
Your answer should be a plain number; it is taken to be in %.

Sample answers from the record:
The measured inhibition associated with "CC(C)c1ccc(-c2cc(-c3c[nH]nc3-c3ccccn3)ccn2)cc1" reads 1.12

The measured inhibition associated with "CCOc1ccc2c(-c3ccnc(Nc4cc(OC)cc(C(F)(F)F)c4)n3)cnn2n1" reads 1.37

Let's switch to this compound now.
The measured inhibition associated with "CN1CCC(n2cnc(-c3ccc(F)cc3)c2-c2ccnc(NCCO)n2)CC1" reads 4.05

* * *

Each entry below carries its reported inhibition.
TEST SYSTEM: Dual specificity tyrosine-phosphorylation-regulated kinase 2 (Homo sapiens) (UniProt Q92630);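 also: reported values are means of DYRK2 inhibition from screening the GSK PKIS collection at 1 µM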
Sequence (Q92630 whole entry): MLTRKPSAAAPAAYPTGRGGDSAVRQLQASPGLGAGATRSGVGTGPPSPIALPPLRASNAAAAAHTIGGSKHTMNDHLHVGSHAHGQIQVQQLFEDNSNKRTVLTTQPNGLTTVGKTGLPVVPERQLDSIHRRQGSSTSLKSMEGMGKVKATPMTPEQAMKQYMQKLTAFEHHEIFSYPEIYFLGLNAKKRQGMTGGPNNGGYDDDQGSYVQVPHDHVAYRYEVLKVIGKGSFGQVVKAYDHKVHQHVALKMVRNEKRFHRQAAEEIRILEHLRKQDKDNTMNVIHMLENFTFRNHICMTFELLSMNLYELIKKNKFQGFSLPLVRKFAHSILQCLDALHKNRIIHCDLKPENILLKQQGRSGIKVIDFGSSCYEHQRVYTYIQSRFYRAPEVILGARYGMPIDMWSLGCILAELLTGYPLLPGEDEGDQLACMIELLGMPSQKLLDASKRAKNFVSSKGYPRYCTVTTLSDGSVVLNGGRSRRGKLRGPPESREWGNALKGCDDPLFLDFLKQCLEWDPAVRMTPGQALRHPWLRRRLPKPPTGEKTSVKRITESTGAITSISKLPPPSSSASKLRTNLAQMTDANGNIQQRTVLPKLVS
EXPERIMENTAL CONDITIONS: at 1 µM
Your answer should be a plain number; it is taken to be in %.

Sample answers from the record:
The measured inhibition associated with "COc1cc2c(cc1Nc1nc(Nc3cccc(F)c3C(N)=O)c3cc[nH]c3n1)N(C(=O)CN1CCN(C(C)C)CC1)CC2" reads 5.93

The measured inhibition associated with CC1=C(C(=O)Nc2ccc3[nH]ncc3c2)C(c2ccc(F)cc2)N=C(c2ccc(C(F)(F)F)nc2)N1 (stereo not given) reads 1.27

The measured inhibition associated with "NS(=O)(=O)c1ccc(N/N=C2\C(=O)Nc3cccc(CCc4ccncc4)c32)cc1" reads -1.25

The measured inhibition associated with "COc1ccccc1-c1cc(/C=C2\C(=O)Nc3ncc(Br)cc32)cc(Br)c1O" reads 4.79

The measured inhibition associated with "O=C1Nc2ccccc2/C1=C1\CCc2cc(O)ccc21" reads 24.7

The measured inhibition associated with "O=C(O[C@H]1CN[C@H](C#Cc2cc3ncnc(Nc4ccc5c(ccn5Cc5cc(F)ccc5F)c4)c3s2)C1)N1CCOCC1" reads 2.77

Continuing:
The measured inhibition associated with "COc1ccc2ncn(-c3cc(O[C@H](C)c4ccccc4C(F)(F)F)c(C(N)=O)s3)c2c1" reads 1.33

The measured inhibition associated with "CCS(=O)(=O)c1ccc(OC)c(Nc2ncc(-c3cccc(F)c3)o2)c1" reads 13.7

The measured inhibition associated with "Cc1c2ccc(N(C)c3ccnc(Nc4cccc(S(N)(=O)=O)c4)n3)cc2nn1C" reads 2.71

The measured inhibition associated with "CS(=O)(=O)Nc1ccc(-c2ccc3c(NC(=O)C4CC4)n[nH]c3c2)cc1" reads 2.73

* * *

TEST SYSTEM: Rho-associated protein kinase 2 (Homo sapiens) (UniProt O75116);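 also: values are averaged inhibition readings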
Sequence (O75116 whole entry, looked up): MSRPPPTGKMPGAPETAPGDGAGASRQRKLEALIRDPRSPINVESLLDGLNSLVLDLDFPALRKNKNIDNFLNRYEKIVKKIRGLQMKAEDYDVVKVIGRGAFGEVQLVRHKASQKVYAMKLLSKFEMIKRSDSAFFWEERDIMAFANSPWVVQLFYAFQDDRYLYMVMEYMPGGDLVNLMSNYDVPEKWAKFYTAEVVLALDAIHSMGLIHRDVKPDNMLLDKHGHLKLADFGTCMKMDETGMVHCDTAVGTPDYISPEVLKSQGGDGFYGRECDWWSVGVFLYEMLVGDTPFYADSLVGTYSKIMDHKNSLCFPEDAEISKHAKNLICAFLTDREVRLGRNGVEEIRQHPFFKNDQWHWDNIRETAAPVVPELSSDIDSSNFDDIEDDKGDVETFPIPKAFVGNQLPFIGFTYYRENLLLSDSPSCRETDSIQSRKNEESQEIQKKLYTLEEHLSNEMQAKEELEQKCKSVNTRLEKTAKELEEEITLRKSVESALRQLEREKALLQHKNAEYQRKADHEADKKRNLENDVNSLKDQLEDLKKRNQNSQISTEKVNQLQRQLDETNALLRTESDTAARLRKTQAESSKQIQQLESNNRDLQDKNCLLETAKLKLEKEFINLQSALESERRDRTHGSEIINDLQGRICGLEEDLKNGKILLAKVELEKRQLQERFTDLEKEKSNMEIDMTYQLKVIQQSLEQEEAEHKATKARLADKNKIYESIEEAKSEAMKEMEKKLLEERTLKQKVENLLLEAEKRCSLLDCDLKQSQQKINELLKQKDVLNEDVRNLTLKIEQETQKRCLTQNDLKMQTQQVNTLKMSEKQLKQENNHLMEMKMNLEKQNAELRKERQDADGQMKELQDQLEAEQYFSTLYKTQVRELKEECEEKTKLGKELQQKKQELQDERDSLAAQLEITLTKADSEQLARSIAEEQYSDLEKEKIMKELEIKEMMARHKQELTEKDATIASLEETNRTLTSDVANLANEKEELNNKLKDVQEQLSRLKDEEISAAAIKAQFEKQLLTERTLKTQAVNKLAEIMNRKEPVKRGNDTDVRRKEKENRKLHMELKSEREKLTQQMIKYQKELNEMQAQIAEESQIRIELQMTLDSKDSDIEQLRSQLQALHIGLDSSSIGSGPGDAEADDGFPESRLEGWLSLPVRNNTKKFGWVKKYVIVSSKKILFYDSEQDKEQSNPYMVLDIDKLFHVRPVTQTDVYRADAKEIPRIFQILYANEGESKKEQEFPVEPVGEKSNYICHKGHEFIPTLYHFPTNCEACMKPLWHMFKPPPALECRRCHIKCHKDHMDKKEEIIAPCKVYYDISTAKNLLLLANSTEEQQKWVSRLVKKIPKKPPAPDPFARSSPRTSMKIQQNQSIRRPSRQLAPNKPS
EXPERIMENTAL CONDITIONS: at 0.1 µM
# if value of inhibition reaches 4%, tag true (1); if it stays below, tag false (0)

Known results for compounds:
Given the entry "O=C(Nc1n[nH]c2nnc(-c3cccnc3)cc12)C1CC1" , answer whether its inhibition meets or surpasses 4%.
false (0)

Given the entry "Cc1nnc(-c2cccc(-c3ccc(C(=O)NCC4CC4)cc3)c2)o1" , answer whether its inhibition meets or surpasses 4%.
false (0)

Given the entry "CS(=O)(=O)Nc1ccc(-c2ccc3c(NC(=O)C4CC4)n[nH]c3c2)cc1" , answer whether its inhibition meets or surpasses 4%.
false (0)

Given the entry "COC(=O)Nc1nc2ccc(Oc3ccc(NC(=O)Nc4cc(C(F)(F)F)ccc4F)cc3)cc2s1" , answer whether its inhibition meets or surpasses 4%.
false (0)

Given the entry "CCCNc1cccc(-n2ncc3c(N/N=C/c4ccncc4)ncnc32)c1" , answer whether its inhibition meets or surpasses 4%.
true (1)

Continuing:
Given the entry "CN1CCC(n2cnc(-c3ccc(F)cc3)c2-c2ccnc(NCCO)n2)CC1" , answer whether its inhibition meets or surpasses 4%.
false (0)

Given the entry "COC(=O)Nc1nc2cc(Oc3ccc(NC(=O)Nc4ccccc4)cc3)ccc2[nH]1" , answer whether its inhibition meets or surpasses 4%.
true (1)

Given the entry "N#Cc1cccc(Nc2ncc(-c3ccccc3)o2)c1" , answer whether its inhibition meets or surpasses 4%.
false (0)

* * *

TEST SYSTEM: Protein kinase C iota type (Homo sapiens);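 also: reported figures are mean inhibition values from the GSK PKIS screen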
Sequence (whole entry): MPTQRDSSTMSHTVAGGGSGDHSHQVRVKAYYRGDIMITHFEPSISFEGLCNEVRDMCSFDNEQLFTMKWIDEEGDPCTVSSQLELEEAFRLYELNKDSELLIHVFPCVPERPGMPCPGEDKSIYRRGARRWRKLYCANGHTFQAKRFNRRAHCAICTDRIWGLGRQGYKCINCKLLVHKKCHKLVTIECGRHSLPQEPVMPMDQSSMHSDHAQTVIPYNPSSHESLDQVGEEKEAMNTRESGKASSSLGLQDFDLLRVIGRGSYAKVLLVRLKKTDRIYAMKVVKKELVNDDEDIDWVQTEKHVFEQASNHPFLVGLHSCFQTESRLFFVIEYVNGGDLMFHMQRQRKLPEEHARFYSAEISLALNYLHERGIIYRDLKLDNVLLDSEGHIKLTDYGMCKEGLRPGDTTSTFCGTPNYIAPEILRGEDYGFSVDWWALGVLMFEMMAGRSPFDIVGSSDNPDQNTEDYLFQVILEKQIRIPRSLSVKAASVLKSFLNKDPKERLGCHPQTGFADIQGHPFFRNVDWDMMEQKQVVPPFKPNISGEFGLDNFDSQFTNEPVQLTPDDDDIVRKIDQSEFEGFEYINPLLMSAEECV
EXPERIMENTAL CONDITIONS: at 1 µM
RECORDED ENDPOINT: inhibition (%)
Your answer should be a plain number; it is taken to be in %.

The measured inhibition associated with "CN(C)CCNC(=O)Nc1ccc(N(C)c2ccnc(Nc3ccc(CS(C)(=O)=O)cc3)n2)cc1" reads 4.15

The measured inhibition associated with "Fc1ccc(Nc2nccc(-c3c(-c4ccc(C(F)(F)F)cc4)nn4ncccc34)n2)cc1F" reads 3.68

The measured inhibition associated with "COc1cc(N2CCN(C(C)C)CC2)ccc1Nc1nc(Nc2cccc3ncccc23)c2cc[nH]c2n1" reads 0.58

The measured inhibition associated with "c1ccc(-c2n[nH]cc2-c2ccnc(-c3ccc(OCCn4ccnc4)cc3)c2)nc1" reads -0.37

The measured inhibition associated with "CS(=O)(=O)CCNCc1ccc(-c2ccc3ncnc(Nc4ccc(OCc5cccc(C(F)(F)F)c5)cc4)c3c2)o1" reads 2.7

The measured inhibition associated with "COc1ccccc1-c1cc(/C=C2\C(=O)Nc3ncc(Br)cc32)cc(Br)c1O" reads 2.57

Continuing:
The measured inhibition associated with "Cc1c2ccc(N(C)c3ccnc(Nc4cccc(S(N)(=O)=O)c4)n3)cc2nn1C" reads 2.75

The measured inhibition associated with "CCS(=O)(=O)c1ccc(OC)c(Nc2ncc(-c3cccc(C(C)=O)c3)o2)c1" reads -0.79

The measured inhibition associated with "Cc1nnc(-c2cccc(-c3ccc(C(=O)NCC4CC4)cc3)c2)o1" reads 1.94

The measured inhibition associated with "O=C(O[C@H]1CN[C@H](C#Cc2cc3ncnc(Nc4ccc(OCc5cccc(F)c5)c(Cl)c4)c3s2)C1)N1CCOCC1" reads 0.9

The measured inhibition associated with "O=C(Nc1n[nH]c2nnc(-c3cccnc3)cc12)C1CC1" reads -0.56

The measured inhibition associated with "COc1cccc(Nc2nccc(-c3cnn4ncccc34)n2)c1" reads -1.07

The measured inhibition associated with CC1=C(C(=O)Nc2ccc3[nH]ncc3c2)C(c2ccc(F)cc2)N=C(c2ccc(C(F)(F)F)nc2)N1 (configuration not stated) reads 1.59

The measured inhibition associated with "CCN1CCC(C(=O)Nc2n[nH]c3nnc(-c4cccc(F)c4F)cc23)CC1" reads -1.05

The measured inhibition associated with "CCn1c(-c2nonc2N)nc2cncc(C(=O)NCCNC)c21" reads 40

The measured inhibition associated with "COc1cc2c(cc1Nc1nc(Nc3cccc(F)c3C(N)=O)c3cc[nH]c3n1)N(C(=O)CN1CCN(C(C)C)CC1)CC2" reads -1.02

The measured inhibition associated with "COC(=O)Nc1nc2cc(Oc3ccc(NC(=O)Nc4ccccc4)cc3)ccc2[nH]1" reads -0.69
